system: Malme-3M; test: NCI tumour cell line growth inhibition, 48 h
The source made the active and inactive calls. No stated cut-off is given here; in the data, active = GI50 up to about 1.1 µM and inactive = higher.
Outcome codes: True = active, False = inactive

INSERT INTO measurements (compound, assigned_category) VALUES
  ('CC(=O)C1=C(C)O[C@@H]2O[C@H](COCc3ccccc3)[C@@H](OCc3ccccc3)[C@H](O)[C@@H]2S1', 'False'),
  ('COC(=O)c1ccc(C)cc1C1CN=NC12Cc1cccc(C)c1C2=O (stereo not given)', 'False'),
  ('CC12CCc3ccccc3C1=Nc1ccccc12 (stereo not given)', 'False'),
  ('Cc1nsc2cc(Cl)n(C)c(=O)c12', 'False'),
  ('CCOC(=O)C1=C(NC(C)(C)C)OCC1=O', 'False'),
  ('CCOC(=O)Nc1sc2c(c1C#N)CC(C)CC2 (stereo not given)', 'False'),
  ('O=c1nc(NC(c2ccccc2)(c2ccccc2)c2ccccc2)ccn1CCCl', 'False'),
  ('O=C(Nn1c(-c2ccccc2)nc2ccccc2c1=O)c1ccc(CS)cc1', 'False'),
  ('CCO/C(=N/S(=O)(=O)C(F)(F)F)N(C(C)C)C(C)C', 'False'),
  ('CCN(CC)CCNc1ccc2nc(C)n3c4ccc(O)cc4c(=O)c1c23', 'False'),
  ('OCCCCCCOc1ccc(-c2cc(-c3ccccn3)nc(-c3ccccn3)c2)cc1', 'True'),
  ('COc1ccc(-c2oc3c(OC)c(OC)c(OC)c(O)c3c(=O)c2OC)cc1OC', 'False'),
  ('C=CCCN1CCc2c([nH]c3ccccc23)C1C(=O)O (stereo not given)', 'False'),
  ('CN1N=CSC12C(=O)N(c1ccccc1)C(=O)N2c1ccccc1 (stereo not given)', 'False'),
  ('CC1CC/C(=C\c2ccc(N(C)C)cc2)C2=C1C(c1ccc(N(C)C)cc1)NC(=S)N2 (stereo not given)', 'False');
